molecular target: Bifunctional 3'-5' exonuclease/ATP-dependent helicase WRN (Homo sapiens); experiment: ADP-Glo Kinase Assay
Sequence (Q14191 whole entry): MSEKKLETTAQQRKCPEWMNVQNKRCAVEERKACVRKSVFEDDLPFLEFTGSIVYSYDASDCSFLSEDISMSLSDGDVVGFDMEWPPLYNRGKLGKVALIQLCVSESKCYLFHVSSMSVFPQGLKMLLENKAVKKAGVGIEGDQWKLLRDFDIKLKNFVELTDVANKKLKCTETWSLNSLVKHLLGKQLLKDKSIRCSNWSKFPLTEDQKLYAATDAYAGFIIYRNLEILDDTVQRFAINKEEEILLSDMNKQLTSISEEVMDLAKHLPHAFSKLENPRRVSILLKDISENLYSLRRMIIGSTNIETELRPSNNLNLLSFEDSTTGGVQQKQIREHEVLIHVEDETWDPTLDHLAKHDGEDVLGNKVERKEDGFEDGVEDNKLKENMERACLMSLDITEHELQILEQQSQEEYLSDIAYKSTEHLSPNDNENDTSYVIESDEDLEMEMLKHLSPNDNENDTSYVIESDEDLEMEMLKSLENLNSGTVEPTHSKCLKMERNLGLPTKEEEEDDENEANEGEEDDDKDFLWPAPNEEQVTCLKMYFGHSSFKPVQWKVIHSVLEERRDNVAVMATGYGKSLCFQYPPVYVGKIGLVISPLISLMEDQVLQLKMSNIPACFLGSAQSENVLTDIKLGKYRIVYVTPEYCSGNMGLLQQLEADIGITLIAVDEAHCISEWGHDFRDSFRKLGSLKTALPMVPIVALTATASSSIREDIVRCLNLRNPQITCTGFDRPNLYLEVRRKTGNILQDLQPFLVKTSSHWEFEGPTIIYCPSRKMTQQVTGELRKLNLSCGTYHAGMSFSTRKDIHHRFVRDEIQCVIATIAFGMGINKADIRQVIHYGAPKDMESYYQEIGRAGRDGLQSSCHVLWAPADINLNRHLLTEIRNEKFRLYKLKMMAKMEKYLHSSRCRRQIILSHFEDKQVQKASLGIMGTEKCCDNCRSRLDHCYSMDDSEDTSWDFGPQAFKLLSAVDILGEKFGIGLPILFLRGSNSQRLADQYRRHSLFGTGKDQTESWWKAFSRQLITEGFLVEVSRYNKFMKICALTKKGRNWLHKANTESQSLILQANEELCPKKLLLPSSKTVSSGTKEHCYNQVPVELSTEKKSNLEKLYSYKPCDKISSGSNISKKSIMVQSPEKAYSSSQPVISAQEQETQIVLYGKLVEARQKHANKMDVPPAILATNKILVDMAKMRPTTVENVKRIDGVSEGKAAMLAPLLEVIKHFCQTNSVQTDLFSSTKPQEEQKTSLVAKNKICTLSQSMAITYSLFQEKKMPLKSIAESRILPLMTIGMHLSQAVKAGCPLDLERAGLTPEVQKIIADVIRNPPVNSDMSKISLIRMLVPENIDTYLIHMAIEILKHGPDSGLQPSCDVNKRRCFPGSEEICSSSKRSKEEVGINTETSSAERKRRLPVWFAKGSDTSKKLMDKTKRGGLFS
pIC50: −log10 of the molar value.
Outcome measure: pIC50

Here are 4 compounds together with their reported answers.
[[record]]
compound = "CCc1c(N2CCN(C(=O)c3ncnc(C)c3O)CC2)c(=O)n2nc(N3CCCOCC3)nc2n1CC(=O)Nc1ccc(C(F)(F)F)cc1Cl"
numeric_result = 7.19

[[record]]
compound = "CCc1c(N2CCN(C(=O)c3ncnc(C)c3O)CC2)c(=O)n2nc(-c3ccc4c(c3)NC(=O)C4)nc2n1CC(=O)Nc1ccc(C(F)(F)F)cc1Cl"
numeric_result = 7.49

[[record]]
compound = "CCc1c(N2CCN(C(=O)c3ncnc(C)c3O)CC2)c(=O)n2nc(-c3cccc4c3COC(C)(C)C4)nc2n1CC(=O)Nc1ccc(C(F)(F)F)cc1Cl [WO2025049746, Example 222]"
numeric_result = 7.40

[[record]]
compound = "CCc1c(N2CCN(C(=O)c3ncnc(C)c3O)CC2)c(=O)n2nc(-c3ccc4c(c3)C(C)CO4)nc2n1CC(=O)Nc1ccc(C(F)(F)F)cc1Cl (centres undefined)"
numeric_result = 7.29


1 = CCc1c(N2CCN(C(=O)c3ncnc(C)c3O)CC2)c(=O)n2nc(-c3ccc4c(c3)n(C)c(=O)n4C)nc2n1CC(=O)Nc1ccc(C(F)(F)F)cc1Cl
2 = CCc1c(N2CCN(C(=O)c3ncnc(C)c3O)CC2)c(=O)n2nc(-c3cc(C)c4c(c3)COC4)nc2n1CC(=O)Nc1ccc(C(F)(F)F)cc1Cl
3 = CCc1c(N2CCN(C(=O)c3ccccc3NS(=O)(=O)C3CC3)CC2)c(=O)n2nc(-c3ccc4c(c3)CCOC4)nc2n1CC(=O)Nc1ccc(C(F)(F)F)c2c1CC2
4 = CCc1c(N2CCN(C(=O)c3ncnc(C)c3O)[C@@H]3CC[C@@H]32)c(=O)n2nc(-c3ccc4c(c3)COC4(C)C)nc2n1CC(=O)Nc1ccc(C(F)(F)F)cc1Cl
5 = CCc1c(N2CCN(C(=O)c3ncnc(C)c3O)CC2)c(=O)n2nc(-c3cccc4c3COC(C)(C)C4)nc2n1CC(=O)Nc1ccc(C(F)(F)F)cc1Cl [WO2025049746, Example 223]
Incoming: Order field: pIC50 | Direction: descending (largest first) Return the labels ranked in the requested order, please.
Outgoing: 2, 1, 4, 3, 5
